assay.target: T1, human GIP receptor (human, UniProt P48546 22-466)
T1 construct: whole, on cells; also called hGIPR
T1 sequence (looked up): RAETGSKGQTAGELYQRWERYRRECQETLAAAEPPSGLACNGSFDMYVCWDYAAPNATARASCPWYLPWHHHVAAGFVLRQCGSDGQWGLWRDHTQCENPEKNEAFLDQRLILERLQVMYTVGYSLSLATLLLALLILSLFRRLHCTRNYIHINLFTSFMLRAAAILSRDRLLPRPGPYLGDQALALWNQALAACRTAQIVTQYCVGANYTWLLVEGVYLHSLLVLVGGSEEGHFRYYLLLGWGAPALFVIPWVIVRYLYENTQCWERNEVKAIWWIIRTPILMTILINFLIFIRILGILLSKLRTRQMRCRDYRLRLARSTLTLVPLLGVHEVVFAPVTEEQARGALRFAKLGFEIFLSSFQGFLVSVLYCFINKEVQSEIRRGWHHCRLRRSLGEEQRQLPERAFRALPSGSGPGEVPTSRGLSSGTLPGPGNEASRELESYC
assay.explanation: competition binding vs 125I-hGIP, COS-7 cells transfected with hGIPR
assay.metric: IC50 (nM)
Report only the number, with the unit nM understood.

// worked examples, IC50 included
EGTFISDYSIAMDKIHQQDFVNWLLAQK (also called human GIP3-30) [hGIP(3-30)]    16
EGTFISDYSIAMDKIAQQDFVNWLLAQK (Synthetic variant of hGIP(3-30)) [hGIP(3-30)H18A]    2

Okay, next one:
Exercise: // returns reported IC50 for input EGTFISDYSIAMDKIKQQDFVNWLLAQK (Synthetic variant of hGIP(3-30)) [hGIP(3-30)H18K]
Solution: 7.8
